Target: Rat NOS-1 (nNOS) (Rattus norvegicus, UniProt P29476)
Sequence (P29476 whole entry): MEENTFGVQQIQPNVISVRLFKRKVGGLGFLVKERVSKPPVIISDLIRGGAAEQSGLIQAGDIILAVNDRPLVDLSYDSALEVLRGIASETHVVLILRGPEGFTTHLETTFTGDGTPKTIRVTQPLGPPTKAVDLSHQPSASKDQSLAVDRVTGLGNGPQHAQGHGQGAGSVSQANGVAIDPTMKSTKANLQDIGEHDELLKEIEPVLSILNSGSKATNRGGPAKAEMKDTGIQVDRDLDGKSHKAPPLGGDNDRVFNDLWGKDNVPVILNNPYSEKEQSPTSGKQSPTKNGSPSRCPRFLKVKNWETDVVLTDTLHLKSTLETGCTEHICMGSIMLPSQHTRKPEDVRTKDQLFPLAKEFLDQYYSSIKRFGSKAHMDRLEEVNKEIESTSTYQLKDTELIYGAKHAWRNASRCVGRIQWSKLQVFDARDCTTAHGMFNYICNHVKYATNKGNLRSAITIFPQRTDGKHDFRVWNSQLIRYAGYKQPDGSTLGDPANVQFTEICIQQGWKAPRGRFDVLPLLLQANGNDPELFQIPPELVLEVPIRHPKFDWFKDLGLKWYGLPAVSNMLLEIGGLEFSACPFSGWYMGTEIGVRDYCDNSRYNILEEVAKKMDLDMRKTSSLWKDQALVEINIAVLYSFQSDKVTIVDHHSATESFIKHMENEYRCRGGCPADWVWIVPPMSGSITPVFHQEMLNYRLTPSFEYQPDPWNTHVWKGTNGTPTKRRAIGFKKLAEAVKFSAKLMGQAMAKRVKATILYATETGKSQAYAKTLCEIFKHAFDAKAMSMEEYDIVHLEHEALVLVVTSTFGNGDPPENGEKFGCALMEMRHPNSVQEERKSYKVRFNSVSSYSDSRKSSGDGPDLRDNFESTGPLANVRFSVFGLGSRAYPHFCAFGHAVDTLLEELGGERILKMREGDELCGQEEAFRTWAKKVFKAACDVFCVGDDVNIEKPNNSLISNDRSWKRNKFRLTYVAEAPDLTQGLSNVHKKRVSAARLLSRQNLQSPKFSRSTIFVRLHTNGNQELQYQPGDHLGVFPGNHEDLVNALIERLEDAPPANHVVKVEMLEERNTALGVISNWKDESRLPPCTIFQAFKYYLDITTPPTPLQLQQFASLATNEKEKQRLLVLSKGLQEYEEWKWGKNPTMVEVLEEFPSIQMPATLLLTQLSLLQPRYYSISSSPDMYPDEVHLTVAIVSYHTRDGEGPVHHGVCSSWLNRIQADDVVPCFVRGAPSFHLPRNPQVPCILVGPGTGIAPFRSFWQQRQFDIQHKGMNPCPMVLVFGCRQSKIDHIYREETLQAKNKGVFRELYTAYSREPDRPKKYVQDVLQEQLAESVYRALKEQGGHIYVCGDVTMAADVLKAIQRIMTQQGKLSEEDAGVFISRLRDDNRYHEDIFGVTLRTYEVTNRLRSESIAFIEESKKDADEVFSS
Assay: Rat NOS-1 (nNOS) assay ([3H]-arginine to [3H]-citrulline conversion)
Conditions: recombinant rat nNOS, 20 min at 37° C., 2 μM L-[3H]arginine; * mean of 3 determinations
pIC50: −log10 of the molar value.
// reported pIC50 per item

Worked cases, pIC50 given:
Measured pIC50 (Rat NOS-1 (nNOS) (Rattus norvegicus, UniProt P29476)), entry CN(C)CCCOc1cc(=O)oc2ccccc12 : < 5.00

Measured pIC50 (Rat NOS-1 (nNOS) (Rattus norvegicus, UniProt P29476)), entry NCCCCOc1cc(=O)oc2ccc(Cl)cc12 : < 5.00

Consider now this further compound.
Measured pIC50 (Rat NOS-1 (nNOS) (Rattus norvegicus, UniProt P29476)), entry Cc1ccc2oc(=O)cc(OCCCN(C)C)c2c1 : < 5.00
